I'd be grateful if you could share measured Geometric Mean : B530-H for these entries.
target.system: T1, CLL-1 on the surface of CLL-1-positive AML cell lines (HL-60 WT, U937) (human, UniProt Q5QGZ9 1-265)
T1 construct: whole, on cells; also called HL-60 WT cells; U937 cells
T1 sequence (looked up): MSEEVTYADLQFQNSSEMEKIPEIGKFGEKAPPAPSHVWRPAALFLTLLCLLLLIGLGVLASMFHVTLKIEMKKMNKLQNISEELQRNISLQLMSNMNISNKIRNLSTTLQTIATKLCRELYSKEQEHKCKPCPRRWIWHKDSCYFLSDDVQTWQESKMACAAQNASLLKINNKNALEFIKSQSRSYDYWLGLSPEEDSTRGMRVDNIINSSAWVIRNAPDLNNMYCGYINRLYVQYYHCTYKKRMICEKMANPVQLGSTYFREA
experiment.notes: flow cytometry, U937, 200 nM; last table names out of step
Reply briefly: the number, and no unit.

Prompt line: # Geometric Mean : B530-H lookup, item Anti-CLL-1 Binder Clone 12 (scFv, scFv (VL-linker-VH); not shown: FLAG tag) scFv: DIQMTQSPSSLSASVGDRVTITCQASQDISNYLNWYQQKPGKAPKLLIYDASNLETGVPSRFSGSGSGTDFTLTISSPQPEDLATYYCQQANSFPFTFGQGTKVEIKGGGGSGGGGSGGGGSQVQLVQSGAEVKKPGSSVKVSCKASGYSFTRNDITWVRQANGRGLEWLGRLNPNNGDTVYAEVFQGRVAMTRDTSTDTAYMELASLKSDDTAVYFCARGFWSFDVWGQGTMVTVSS
Response line: 59600

Prompt line: So what does the record say about Geometric Mean : B530-H for Anti-CLL-1 Binder Clone 10 (scFv, scFv (VL-linker-VH); not shown: FLAG tag) scFv: DIQMTQSPSFLSASVGDRVTITCRASQGISSYLAWYQQKPGKAPKLLIYSASSLQSGVPSRFSGSGSGTDFTLTISSLQPEDFATYYCQQSYNSPTFGQGTRLEIKGGGGSGGGGSGGGGSQVQLVQSGAEVKKPGASVKVSCKASGYTFTGYYMHWVRQAPGQGLEWMGWMNPNSGNTGYAQKFQGRVTMTRNTSISTAYLELTSLTSDDTAVYYCARGDTGDFFDHWGQGTLVTVSS ?
Response line: 52100

Prompt line: For Anti-CLL-1 Binder Clone 42 (scFv, scFv (VL-linker-VH); not shown: FLAG tag) scFv: EIVLTQSPATLSLSPGERATLSCRASQSVSSYLAWYQQKPGQAPRLLIYDASNRATGIPDRFSGSGSGTDFTLTISRLEPEDFAVYYCQQYGSSPVTFGQGTKLEIKGGGGSGGGGSGGGGSQVQLVQSGAEVKKPGSSVKVSCKASGGTFSSYAISWVRQAPGQGLEWMGGIIPIFGTANYAQKFQGRVIMTTDTSTSTAHMELRSLRSDDTAVYYCARDADEFGAFDIWGQGTTVTVSS , what is its reported Geometric Mean : B530-H?
Response line: 29000

Source: patent US20250333515A1
